Attribution: patent US8937182B2

- Test system: KKA^Y mice
- experiment_notes: Glucose, insulin and triglyceride in diabetic KKAy mice treated with exemplary compounds
- Type: in vivo
- cond: 93 mg/kg oral for 4 days, blood approx. 18 h after last dose, fasted, Vehicle A 24 (5)
reported_property: Insulin (Mean/SD)

>>> experimental_value("O=C1NC(=O)C(Cc2ccc(OCC(=O)c3cccc(Cl)c3)cc2)S1 (stereo not drawn) [Compound 7]")
0.59
>>> experimental_value("O=C1NC(=O)C(Cc2ccc(OCC(=O)c3ccccc3F)cc2)S1 (stereo not drawn) [Compound 3]")
0.20
>>> experimental_value("O=C1NC(=O)C(Cc2ccc(OCC(=O)c3ccc(F)cc3)cc2)S1 (stereo not drawn) [Compound 2]")
0.10
>>> experimental_value("O=C1NC(=O)C(Cc2ccc(OCC(=O)c3ccccc3Cl)cc2)S1 (stereo not drawn) [Compound 8]")
0.47
>>> experimental_value("O=C1NC(=O)C(Cc2ccc(OCC(=O)c3cccc(F)c3)cc2)S1 (stereo not drawn) [Compound 4]")
0.24
>>> experimental_value("COc1ccc(C(=O)COc2ccc(CC3SC(=O)NC3=O)cc2)cc1 (stereo not drawn) [Compound 9]")
0.76
